target: UniProt:Q06609
Sequence (Q06609 whole entry): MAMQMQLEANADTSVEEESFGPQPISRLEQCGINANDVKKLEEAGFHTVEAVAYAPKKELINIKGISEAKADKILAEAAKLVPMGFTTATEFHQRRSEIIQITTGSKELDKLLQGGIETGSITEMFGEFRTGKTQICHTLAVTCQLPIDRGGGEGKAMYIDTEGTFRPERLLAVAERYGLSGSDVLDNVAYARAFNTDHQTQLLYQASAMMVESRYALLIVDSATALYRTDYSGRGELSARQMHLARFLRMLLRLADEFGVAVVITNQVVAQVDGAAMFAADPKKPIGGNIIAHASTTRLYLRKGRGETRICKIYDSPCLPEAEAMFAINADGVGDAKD
applied_conditions: 5 to 100 uM
Description: Inhibition of human N-terminal 6-histidine/Avi-tagged recombinant RAD51 expressed in Escherichia coli BL21(DE3) assessed as D-loop formation using 5'-32P-labeled 90-mer ssDNA as substrate at 5 to 100 uM preincubated for 10 mins followed by substrate addition with subsequent incubation with substrate for 5 mins measured after 20 mins in presence of supercoiled pRS306 dsDNA by agarose gel electrophoresis
measured_quantity: Imax (%)

Check out these entries, answers already filled in.
CCNc1ccc(-c2nc3ccccc3n3cccc23)cc1 ... 91
COc1ccc2c(c1)nc(-c1cccnc1)c1cccn12 ... 74
Oc1ccc2c(c1)nc(-c1cccnc1)c1cccn12 ... 53
COc1ccc2c(c1)NC(c1ccc(N(C)C)cc1)c1cccn1-2 (stereo in doubt; 1) ... 74
c1ccc2c(c1)nc(-c1ccc(N3CCOCC3)cc1)c1cccn12 ... 68

P: COc1ccc2c(c1)NC(c1ccc(N(C)C)cc1)c1cccn1-2 (racemic)
Q: COc1ccc2c(c1)nc(-c1ccc(N(C)C)cc1)c1cccn12
R: COc1ccc2c(c1)nc(-c1ccc(N)cc1)c1cccn12
Incoming: Sort the compounds on Imax; start with the lowest figure. // list labels; follow requested order
Outgoing: P, Q, R

1: CN(C)c1ccc(-c2nc3cc(O)ccc3n3cccc23)cc1
2: COc1ccc2c(c1)nc(-c1ccc(O)cc1)c1cccn12
Incoming: For the pair 1 and 2 , which entry has the numerically smaller recorded Imax? Answer = label.
Outgoing: 2
(2: 13%, 1: 91%)

The reported measurements were obtained from ChEMBL document CHEMBL3822453.
